# Tested on: K562
# Assay Protocol: Cytotoxicity against human K562 cells at 0.0003 to 100 uM after 48 hrs by ATPlite assay
# Assay type: cell-based
# Test Context: k562, 48 h

Smiles Text	Activity
COc1cc(-c2oc3c(O)cc(-c4oc5cc(O)cc(O)c5c(=O)c4O)cc3c2C)ccc1O	Toxic
COc1cc([C@@H]2Oc3c(O)cc(-c4oc5cc(O)cc(O)c5c(=O)c4O)cc3[C@H]2CO)ccc1O	Toxic

====

# System: HL-60
# Assay Protocol: Cytotoxicity against human HL60 cells at 0.0003 to 100 uM after 48 hrs by ATPlite assay
# Assay type: cell-based
# Test Context: hl-60, 48 h

Compound	Activity
COc1cc([C@@H]2Oc3c(O)ccc([C@H]4Oc5cc(O)cc(O)c5C(=O)[C@@H]4O)c3[C@H]2CO)ccc1O [ISOSILYCHRISTIN]	Non-Toxic
COc1cc(-c2oc3c(O)cc([C@H]4Oc5cc(O)cc(O)c5C(=O)[C@@H]4O)cc3c2C)ccc1O	Toxic
COc1cc([C@@H]2Oc3c(O)cc([C@@H]4CC(=O)c5c(O)cc(O)cc5O4)cc3[C@H]2CO)ccc1O	Toxic
COc1cc(C2Oc3c(O)cc([C@H]4Oc5cc(O)cc(O)c5C(=O)[C@@H]4O)cc3C2CO)ccc1O (some centres undefined) [SILICRISTIN]	Non-Toxic
